# system_under_test: hNPY2R (Homo sapiens, UniProt P49146)
# Construct: expressed in transfected cells; host or cells: HEK-293 cells carrying a CRE-luciferase reporter gene
# Sequence (P49146 1-381): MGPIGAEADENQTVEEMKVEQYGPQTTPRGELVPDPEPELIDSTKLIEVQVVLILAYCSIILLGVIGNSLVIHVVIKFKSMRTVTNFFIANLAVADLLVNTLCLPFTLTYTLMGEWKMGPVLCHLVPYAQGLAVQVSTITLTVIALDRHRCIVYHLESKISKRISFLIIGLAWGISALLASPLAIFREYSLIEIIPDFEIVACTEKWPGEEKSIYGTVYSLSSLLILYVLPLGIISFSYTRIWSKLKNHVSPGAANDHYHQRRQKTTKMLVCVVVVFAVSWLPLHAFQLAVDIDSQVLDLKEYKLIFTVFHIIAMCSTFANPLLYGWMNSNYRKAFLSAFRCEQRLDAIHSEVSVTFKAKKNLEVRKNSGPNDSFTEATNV
# protocol: hNPY2R CreLuc reporter gene assay in 0.5% and 100% plasma
# Assay type: cell-based
# conditions: CreLuc reporter gene assay, 0.5% human plasma; read-out: hNPY2R 0.5% hP
Starred links: 1 amine or outer side, 2 acyl side, 3 side chain; linkers in the order of their positions; H or OH if unused. Non-standard residues stand in square brackets, D forms with d. Groups on a side chain read outwards from the residue. No end group written: not given here. *: point of attachment. C20 diacid = O=C(O)CCCCCCCCCCCCCCCCCCC(=O)*; C18 diacid = O=C(O)CCCCCCCCCCCCCCCCC(=O)*; γGlu = O=C(O)[C@H](CCC(=O)[*:2])N[*:1]; εLys = N[C@@H](CCCCN[*:1])C(=O)[*:2]; AEEA = NCCOCCOCC(=O)O; Aib = CC(C)(N)C(=O)O
endpoint: EC50 (nM)
Express your answer in nM, writing the number without its unit.

Completed entries (count: 5):
substance="H-Y[Aib]EGTFTSDYSI[Aib]LEKQAE[Aib]AFVQWLIK([εLys-γGlu-γGlu-γGlu-γGlu-C18 diacid])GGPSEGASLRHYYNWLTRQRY-NH2 [Compound 174]" system_under_test="hNPY2R (Homo sapiens, UniProt P49146)" endpoint_unit=nM result_number=11.5
substance="H-Y[Aib]EGTFTSDYSI[Aib]LEEEAQ[Aib]AFVEWLIK([εLys-γGlu-γGlu-γGlu-γGlu-γGlu-γGlu-C20 diacid])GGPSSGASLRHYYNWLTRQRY-NH2 [Compound 66]" system_under_test="hNPY2R (Homo sapiens, UniProt P49146)" endpoint_unit=nM result_number=18.7
substance="Y[Aib]EGTFTSDYSI[Aib]LEKQAQ[Aib]AFVEWLIK([εLys-γGlu-γGlu-γGlu-γGlu-γGlu-C18 diacid])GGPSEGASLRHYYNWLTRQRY-NH2 [Compound 295]" system_under_test="hNPY2R (Homo sapiens, UniProt P49146)" endpoint_unit=nM result_number=10.9
substance="H-Y[Aib]EGTFTSDYSI[Aib]LEKQAQ[Aib]EFVEWLIK([γGlu-γGlu-γGlu-γGlu-γGlu-γGlu-C20 diacid])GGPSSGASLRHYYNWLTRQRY-NH2 [Compound 198]" system_under_test="hNPY2R (Homo sapiens, UniProt P49146)" endpoint_unit=nM result_number=13.1
substance="H-Y[Aib]EGTFTSDYSI[Aib]LESQAQ[Aib]AFVEWLIK([εLys-γGlu-γGlu-γGlu-γGlu-γGlu-γGlu-C20 diacid])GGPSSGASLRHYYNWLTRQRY-NH2 [Compound 121]" system_under_test="hNPY2R (Homo sapiens, UniProt P49146)" endpoint_unit=nM result_number=23.8

Name the recorded EC50 of the substance listed here: Y[Aib]EGTFTSDYSI[Aib]LEKQAE[Aib]AFVQWLIK([AEEA-AEEA-γGlu-γGlu-γGlu-γGlu-C20 diacid])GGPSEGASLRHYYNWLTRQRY-NH2 [Compound 219]
12.8

Recall and state the measured EC50 for H-Y[Aib]EGTFTSDYSI[Aib]LEKQAQ[Aib]AFVEWLIK([εLys-γGlu-γGlu-γGlu-γGlu-γGlu-γGlu-C20 diacid])GGPSSGALLRHYYNWLTRQRY-NH2 [Compound 197] .
42.6

Reference source: patent US20240247080A1
